The following molecules are listed with their measured pIC50 values.
- experimental-target: GST-Aurora A (Homo sapiens)
- Construct: N-terminal GST fusion with full length Aurora A (1-403 amino acids)
- Sequence (O14965 whole entry, the tested form may be a part): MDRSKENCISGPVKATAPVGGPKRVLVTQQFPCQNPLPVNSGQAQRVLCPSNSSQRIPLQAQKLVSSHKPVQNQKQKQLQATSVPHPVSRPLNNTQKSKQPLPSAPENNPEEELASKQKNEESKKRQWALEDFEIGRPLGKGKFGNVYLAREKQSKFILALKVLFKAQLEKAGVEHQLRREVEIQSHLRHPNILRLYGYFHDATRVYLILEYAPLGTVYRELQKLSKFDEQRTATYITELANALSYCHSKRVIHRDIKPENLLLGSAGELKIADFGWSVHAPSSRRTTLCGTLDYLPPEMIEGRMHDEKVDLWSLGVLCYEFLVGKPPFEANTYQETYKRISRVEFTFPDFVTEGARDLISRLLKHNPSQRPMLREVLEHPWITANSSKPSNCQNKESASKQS
- experimental-protocol: Aurora A IC50, Caliper LC3000 mobility shift assay
- assay-context: LC3000 method; 15 uM ATP (the KM value); read-out: Aurora Kinase A Activity (IC50)
- Method: The Aurora assays described here are performed on two Caliper Life Sciences systems: the LC3000 and the Desktop Profiler. […] The plate is read on a Caliper LC3000 in an Off-Chip mobility shift assay format, using the following parameters for a 12-sipper chip: screening pressure—1.8 psi, upstream voltage—2700, downstream voltage—1000. […]
pIC50: −log10 of the molar value.
assay-readout: pIC50

| molecule | obs-value |
| --- | --- |
| CN(C)CCNC(=O)c1ccc2c(=O)[nH]c3nccc(Nc4ccc(NC(=O)c5ccccc5)cc4)c3c2c1 | > 7.96 |
| O=c1[nH]c2ncccc2c2cc(Nc3ccccc3F)ccc12 | < 7.00 |
| O=c1[nH]c2nccc(Nc3c(Cl)ccc4c3OCO4)c2c2ccccc12 | < 7.00 |
| O=C(Nc1ccc(Nc2ccnc3[nH]c(=O)c4c(C(=O)NCCO)cccc4c23)cc1)c1ccc(F)cc1C(F)(F)F | > 7.96 |
| O=C(Nc1ccc(Nc2ccnc3[nH]c(=O)c4ccccc4c23)cc1)c1ccc(OC(F)(F)F)cc1 | 7.00 to 7.96 |
| O=C(Nc1ccc(Nc2ccnc3[nH]c(=O)c4ccccc4c23)cc1)c1ccc(Cl)c(Cl)c1 | > 7.96 |
| Cc1cccc(CNc2ccc3c(=O)[nH]c4ncccc4c3c2)c1 | < 7.00 |
| O=C(Nc1ccc(Nc2ccnc3[nH]c(=O)c4ccccc4c23)cc1)C(CC1CCCO1)C(F)(F)F (stereo not shown) | 7.00 to 7.96 |
| O=c1[nH]c2ncccc2c2cc(NCc3ccccc3F)ccc12 | 7.00 to 7.96 |
| O=c1[nH]c2ncccc2c2cc(NCc3ccccc3Br)ccc12 | 7.00 to 7.96 |
| COc1cc2c(=O)[nH]c3nccc(Nc4ccc(NC(=O)c5ccccc5)cc4)c3c2cc1OC | > 7.96 |
| COc1ccccc1Nc1ccnc2[nH]c(=O)c3ccccc3c12 | < 7.00 |
| CN1CCN(Cc2cccc(C(=O)Nc3ccc(Nc4ccnc5[nH]c(=O)c6ccccc6c45)cc3)c2)CC1 | < 7.00 |

Source of measurements: patent US8735584B2
